# target-system: ~100 representative kinases (Homo sapiens, UniProt P16083)
# Construct: Recombinant protein kinase domains with a concentration of 2 μM
# Sequence (P16083 1-231): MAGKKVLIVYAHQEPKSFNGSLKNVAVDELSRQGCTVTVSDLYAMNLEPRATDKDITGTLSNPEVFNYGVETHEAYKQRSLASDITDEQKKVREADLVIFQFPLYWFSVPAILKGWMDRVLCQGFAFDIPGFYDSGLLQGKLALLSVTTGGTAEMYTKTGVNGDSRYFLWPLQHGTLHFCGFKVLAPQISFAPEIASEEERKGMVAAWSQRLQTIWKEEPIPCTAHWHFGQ
# procedure-details: DSF 100 kinase selectivity screen;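 note: compound tested at 20 µM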
# Assay type: binding
# experimental-context: protein NQO2; average of three replicates
Please respond with reported dTm for every item in the list.
One number for each entry, in K.

// solved cases for dTm follow
[
  {
    "smiles-input": "O=C(Nc1cccc(-c2c[nH]c3ncnc(N4CCOCC4)c23)c1)C1(C(=O)Nc2ccc(F)c(F)c2)CC1",
    "target-system": "~100 representative kinases (Homo sapiens, UniProt P16083)",
    "dTm, K": -0.41
  },
  {
    "smiles-input": "Cc1cc(NC(=O)C2(C(=O)Nc3ccc(F)cc3)CC2)cc(-c2c[nH]c3ncnc(N4CCOCC4)c23)c1",
    "target-system": "~100 representative kinases (Homo sapiens, UniProt P16083)",
    "dTm, K": -2.13
  },
  {
    "smiles-input": "O=C(Nc1cccc(-c2c[nH]c3ncnc(N4CCOCC4)c23)c1)C1(C(=O)Nc2ccc(F)c(Cl)c2)CC1",
    "target-system": "~100 representative kinases (Homo sapiens, UniProt P16083)",
    "dTm, K": 0.34
  }
]

Then this compound:
Input: Given `CC(C)(C)c1cc(NC(=O)Nc2cccc(-c3c[nH]c4ncnc(N5CCOCC5)c34)c2)n(-c2ccc3ncccc3c2)n1` , report its dTm on ~100 representative kinases (Homo sapiens, UniProt P16083).
Output: 0.00214

---

# target-system: ~100 representative kinases (Homo sapiens, UniProt P49841)
# Construct: Recombinant protein kinase domains with a concentration of 2 μM
# Sequence (P49841 whole entry, the tested form may be a part): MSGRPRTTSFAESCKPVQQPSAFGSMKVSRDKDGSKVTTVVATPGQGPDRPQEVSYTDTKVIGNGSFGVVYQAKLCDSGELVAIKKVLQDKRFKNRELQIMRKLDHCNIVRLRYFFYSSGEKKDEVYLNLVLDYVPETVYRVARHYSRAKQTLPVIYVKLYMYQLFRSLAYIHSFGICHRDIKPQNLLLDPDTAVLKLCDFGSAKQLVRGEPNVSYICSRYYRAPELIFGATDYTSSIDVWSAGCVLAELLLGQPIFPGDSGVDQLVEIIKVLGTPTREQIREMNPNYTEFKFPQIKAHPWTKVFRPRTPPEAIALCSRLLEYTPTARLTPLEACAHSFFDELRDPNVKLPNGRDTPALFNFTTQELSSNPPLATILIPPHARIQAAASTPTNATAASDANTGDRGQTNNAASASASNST
# procedure-details: DSF 100 kinase selectivity screen;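 note: compound tested at 20 µM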
# Assay type: binding
# experimental-context: protein GSK3B; average of three replicates
Please respond with reported dTm for every item in the list.

// solved cases for dTm follow
[
  {
    "molecule": "Cc1cc(NC(=O)C2(C(=O)Nc3cccc(-c4c[nH]c5ncnc(N6CCOCC6)c45)c3)CC2)ccc1F [Compound 20]",
    "target-system": "~100 representative kinases (Homo sapiens, UniProt P49841)",
    "endpoint-label": "dTm",
    "measured": "9.68 K"
  },
  {
    "molecule": "Cc1cc(F)ccc1NC(=O)C1(C(=O)Nc2cccc(-c3c[nH]c4ncnc(N5CCOCC5)c34)c2)CC1 [Compound 24]",
    "target-system": "~100 representative kinases (Homo sapiens, UniProt P49841)",
    "endpoint-label": "dTm",
    "measured": "4.64 K"
  }
]

Dear colleague, could you send me dTm for each of the items below? Thanks.
1. COc1cc(NC(=O)C2(C(=O)Nc3cccc(-c4c[nH]c5ncnc(N6CCOCC6)c45)c3)CC2)ccc1F [Compound 21]
2. CCc1ccc(NC(=O)C2(C(=O)Nc3cccc(-c4c[nH]c5ncnc(N6CCOCC6)c45)c3)CC2)cc1 [Compound 15]
3. O=C(Nc1cccc(-c2c[nH]c3ncnc(N4CCOCC4)c23)c1)C1(C(=O)Nc2ccc(F)c(Cl)c2)CC1 [Compound 18]
4. O=C(Nc1cccc(-c2c[nH]c3ncnc(N4CCOCC4)c23)c1)C1(C(=O)Nc2ccc(F)c(Br)c2F)CC1 [Compound 26]
5. CC(C)(C)c1cccc(NC(=O)C2(C(=O)Nc3cccc(-c4c[nH]c5ncnc(N6CCOCC6)c45)c3)CC2)c1 [Compound 22]

Output:
1. 8.20 K
2. 5.12 K
3. 9.62 K
4. 7.56 K
5. 6.13 K
